measurement target: hErbB3.mmh (soluble monomeric human ErbB3 extracellular domain with C-terminal myc-myc-hexahistidine tag) (human, UniProt P21860 20-642)
Sequence (P21860 other isoform, or with tags, fused parts or gaps): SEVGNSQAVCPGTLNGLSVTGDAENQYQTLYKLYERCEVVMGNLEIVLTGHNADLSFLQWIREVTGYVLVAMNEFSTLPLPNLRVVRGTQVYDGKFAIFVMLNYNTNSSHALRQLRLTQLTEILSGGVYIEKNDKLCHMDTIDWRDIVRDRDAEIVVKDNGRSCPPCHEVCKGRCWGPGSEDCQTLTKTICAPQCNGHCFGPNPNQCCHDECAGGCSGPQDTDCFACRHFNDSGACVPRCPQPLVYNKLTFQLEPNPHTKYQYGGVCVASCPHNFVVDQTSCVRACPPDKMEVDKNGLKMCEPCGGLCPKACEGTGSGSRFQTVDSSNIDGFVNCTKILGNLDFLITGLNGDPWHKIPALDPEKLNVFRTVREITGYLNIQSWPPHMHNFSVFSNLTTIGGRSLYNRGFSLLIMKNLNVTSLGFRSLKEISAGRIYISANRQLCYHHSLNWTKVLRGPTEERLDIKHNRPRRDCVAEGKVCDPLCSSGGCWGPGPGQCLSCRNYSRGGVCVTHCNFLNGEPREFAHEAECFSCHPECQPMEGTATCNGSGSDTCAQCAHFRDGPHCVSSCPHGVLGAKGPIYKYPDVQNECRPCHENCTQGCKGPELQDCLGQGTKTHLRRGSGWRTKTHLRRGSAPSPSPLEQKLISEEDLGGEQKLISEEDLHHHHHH
method summary: SPR (Biacore), 25 C, mAb capture format
measured attribute: T½
Number plus unit, in that order.

# annotated cases, reported T½ shown
Given the binder H4H2290P (antibody, V domains shown, Fully human, human IgG4 Fc (H4H prefix)) VH: EVQLLESGGGLVQPGGSLRLSCVASGFTFSSFAMSWVRQAPGKGLEWVSVISGSGGSTNHADSVRGRFTISRDNSLNTVYLQMHSLRAEDTALYYCVKAETSSSYFYYGMDVWGQGTTVTVSS VL: DIQLTQSPSFLSASVGDRVTITCWASQDISSYLAWYQQKPGKVPNLLIYGASSLQPGVPSRFSGSGSGTEFTLTISSLQPEDFATYYCQQLNNYPTFGGGTKLEIKR , what is its reported T½?
2.65 h

Could you share which T½ value was measured for H4H2140P (antibody, V domains shown, Fully human, human IgG4 Fc (H4H prefix)) VH: EVQLVESGGGLVQPGGSLRLSCAASGFSVSYYDMHWVRQVTGKGLEWVSAIGPAGDTYYPGSVKGRFTISREDATNSLYLQIHSLGAGDTAVYYCAREGAIAARPDDYYGMDVWGQGTTVTVSS VL: DIQLTQSPSFLSASVGDRVTITCWASQDISSYLAWYQQKPGKAPKLLIYAASTLQSGVPSRFSGSGSGTEFTLTISSLQPEDFATYYCQQLNSYPLTFGGGTKVEIKR ?
5.43 h

Reported T½, binder H4H2132P (antibody, V domains shown, Fully human, human IgG4 Fc (H4H prefix)) VH: EVQLVESGGGVVRPGGSLRLSCAASGFTFDDYGMSWVRQFPGKGLEWVSSIDGNGGNTGYSDSVKGRFTISRDNAKNSLHLQMNSLRAEDTALYHCARDPDYDSVWGNYRPFDYWGQGTLVTVSS VL: DIVMTQSPDSLAVSLGERATINCKSSQSVLSSSNDNNYLAWFQQKPGQPPNLLIYWASTRDSGVPDRFSASGSGTDFTLAISSLQAEDVAVYYCHQYYSSPPTFGQGTKVEIKR : ____
4.65 h

Now look at this one.
Given the entry H4H2111P (antibody, V domains shown, Fully human, human IgG4 Fc (H4H prefix)) VH: QVQLVESGGGVVQPGRSLRLSCAASGFTFNNYGMHWVRQAPGKGLAWVAVMWYSESHKYYADSVKGRFTISRDNSKNTLYLEMNSLRVEDTAIYYCARDLGDPDAFDIWGQGTMVTVSS VL: DIQLTQSPSFLSASVGDRVTITCWASQGISSYLAWYQQKPGKAPKLLIYGASTLQSGVPSRFSGSGSGTEFTLTISSLQPEDFATYYCQQLNSYPLTFGGGTKVEIKR , report its measured T½.
1.52 h
